- target_entity: CYP2C9 (Homo sapiens, UniProt P11712)
- Sequence (P11712 whole entry): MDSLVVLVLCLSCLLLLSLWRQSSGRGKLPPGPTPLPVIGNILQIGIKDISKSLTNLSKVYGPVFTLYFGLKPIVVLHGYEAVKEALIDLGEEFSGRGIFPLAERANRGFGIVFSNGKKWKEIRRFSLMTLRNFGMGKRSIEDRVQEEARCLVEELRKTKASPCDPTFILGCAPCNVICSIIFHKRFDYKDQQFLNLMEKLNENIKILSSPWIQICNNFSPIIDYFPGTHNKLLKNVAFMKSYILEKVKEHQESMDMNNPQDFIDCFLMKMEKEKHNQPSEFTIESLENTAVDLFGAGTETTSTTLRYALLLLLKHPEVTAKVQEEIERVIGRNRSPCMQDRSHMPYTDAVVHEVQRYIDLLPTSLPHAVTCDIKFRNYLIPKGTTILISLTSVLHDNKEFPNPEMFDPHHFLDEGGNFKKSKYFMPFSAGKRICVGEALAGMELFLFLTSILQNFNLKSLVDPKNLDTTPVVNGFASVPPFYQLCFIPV
- method: Inhibition of recombinant human CYP2C9 expressed in baculosomes assessed as residual activity at 25 uM using BOMCC substrate by fluorescence assay relative to control
- Assay type: ADME
- experimental_setup: probe BOMCC, read-out: Activity
readout_type: activity at 25 µM (%)
The response must be a number in % with no trailing unit.

Reference set, count: 4
INSERT INTO assay_data (smiles_text, readout_type, recorded_result) VALUES
  ('O=C(CN(Cc1ccc(Cl)c(O)c1F)Cc1ccc(Cl)c(O)c1F)NO', 'activity at 25 µM', 68),
  ('O=C(CN(Cc1ccc(Cl)cc1)Cc1cccc(C(=O)O)c1)NO', 'activity at 25 µM', 77),
  ('O=C(CN(Cc1ccc(F)c(O)c1F)Cc1ccc(F)c(O)c1F)NO', 'activity at 25 µM', 101),
  ('COc1ccc(CN(CC(=O)NO)Cc2cccc(C(=O)O)c2)cc1', 'activity at 25 µM', 102);

Please turn your attention to the following entry.
Input: Using the record for `O=C(CN(Cc1cccc(C(=O)O)c1)Cc1cccc(C(=O)O)c1)NO` , report its activity at 25 µM.
Output: 101
